Just for reference, ChEMBL document CHEMBL3792381 is where these values come from.

- Assay protocol: Solubility of compound at pH 6.8
- Assay type: physicochemical
- Condition description: buffer
Measurement name: solubility (µg/mL)
Number only, in µg/mL; omit the unit.

Cn1c(C2CC2)nc2ccc(-n3ccc(OCc4ccc(Cl)s4)cc3=O)cc21 :: 2.3

Moving on to another molecule below.
Please supply the value of reported solubility for the item Cn1c(C2CC2)nc2ccc(-n3ccc(OCc4ccc(C(F)(F)F)s4)cc3=O)cc21
0.25

###

- System: Melanin-concentrating hormone receptor 1 (Homo sapiens)
- Sequence (Q99705 whole entry): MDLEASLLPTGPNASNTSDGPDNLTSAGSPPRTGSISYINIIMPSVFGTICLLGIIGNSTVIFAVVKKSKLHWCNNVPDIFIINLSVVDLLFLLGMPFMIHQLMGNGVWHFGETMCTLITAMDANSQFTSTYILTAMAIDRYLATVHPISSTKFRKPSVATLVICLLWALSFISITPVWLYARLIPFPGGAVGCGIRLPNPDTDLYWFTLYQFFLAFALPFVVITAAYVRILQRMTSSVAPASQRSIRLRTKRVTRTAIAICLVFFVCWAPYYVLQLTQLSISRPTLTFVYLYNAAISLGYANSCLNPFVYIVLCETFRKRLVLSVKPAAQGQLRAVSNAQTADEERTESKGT
- Assay protocol: Displacement of [125I]-MCH(4 to 19) from human MCHR1 expressed in CHO cell membranes after 1 hr by liquid scintillation counting
Measured IC50 of individual entries
Number only, in nM; omit the unit.

// solved cases for IC50 follow
Cc1nc2ccc(-n3ccc(OCc4ccc(F)cc4)cc3=O)cc2n1C :: 77
Cn1c(C2CC2)nc2ccc(-n3ccc(OCc4ccc(Cl)s4)cc3=O)cc21 :: 19
CCc1nc2ccc(-n3ccc(OCc4ccc(F)cc4)cc3=O)cc2n1C :: 48
Cc1c(C2CC2)nc2cnc(-n3ccc(OCc4ccc(Cl)cc4)cc3=O)cn12 :: 44

Please supply the value of reported IC50 for the item Cn1c(C2CC2)nc2ccc(-n3ccc(OCc4ccc(F)cc4)cc3=O)cc21
40
